Attribution: the RNAGym collection of RNA variant scans (doi:10.7554/elife.80360)

B1: HDV Ribozyme (parent)
chain: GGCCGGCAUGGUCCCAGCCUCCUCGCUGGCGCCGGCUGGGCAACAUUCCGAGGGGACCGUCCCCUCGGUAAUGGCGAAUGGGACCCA

- Variants of: B1
- METHOD_NOTES: self-cleavage, relative activity (ratio to wild type); higher = more cleavage; co-transcriptional
OBSERVED_PROPERTY: self-cleavage
Enter a number only.

Example variants with recorded self-cleavage:
| RESIDUE_SEQUENCE | self-cleavage |
| --- | --- |
| GGCCGGCAUGGUCCCAGCAUCCCCGCUGGCGCCGGCUGGGCAACAUUCCGAGGGGACCGUCCCCUCGGUAAUGGCGAAUGGGACCCA | 0.0519 |
| GGCCGGCAUGGUCCCAGCCUCCUGGCUGGGGCCGGCUGGGCAACAUUCCGAGGGGACCGUCCCCUCGGUAAUGGCGAAUGGGACCCA | 0.0875 |

// query Entry GGCCGGCAUGGUCCCAGCCUCCUCGCUGGCGCCGGCUGGGCAACAUUCCGAGGGGACCGUCCUCUCGGAAAUGGCGAAUGGGACCCA needs its self-cleavage filled in; supply it.
// result 0.975

// query Entry GGCGGGCAUGGUCCCAGCCUCCUCGCUGGGGCCGGCUGGGCAACAUUCCGAGGGGACCGUCCCCUCGGUAAUGGCGAAUGGGACCCA needs its self-cleavage filled in; supply it.
// result 0

// query Entry GGCCGGCAUGGUCCCAGCCUCCGCGCUGGCGCCGGCUGGGCAACAUUCCGAGGGGACCGUCCCCUCGGUAAUGGCGAAUGGGACGCA needs its self-cleavage filled in; supply it.
// result 0.643

// query Entry GGCCGGCAUGGUCGCAGCCUCCUCGCUGGCGCCGGCUGGGCAACAUUCCGAGGGGACCGUCCCCUGGGUAAUGGCGAAUGGGACCCA needs its self-cleavage filled in; supply it.
// result 0.391

// query Entry GGCCGGCCUGGUCCCAGCCUCCUCACUGGCGCCGGCUGGGCAACAUUCCGAGGGGACCGUCCCCUCGGUAAUGGCGAAUGGGACCCA needs its self-cleavage filled in; supply it.
// result 0.172

// query Entry GGCCGGAAUGGUCCGAGCCUCCUCGCUGGCGCCGGCUGGGCAACAUUCCGAGGGGACCGUCCCCUCGGUAAUGGCGAAUGGGACCCA needs its self-cleavage filled in; supply it.
// result 0.123
